Exercise: for every item that follows, state its recorded EC50.
Test system: HIV-1 double mutant K103N/Y181C
Experiment: microbe, parasite or virus in culture
Type: cell-based
Conditions: double mutant K103N/Y181C; read-out: EC50 K103N/Y181C

In the examples that follow, each entry is paired with its recorded EC50.
Task item: What value of EC50 has been recorded for this entry: CCN1c2ncc(CCOc3ccc(S(=O)(=O)Nc4ccc(C(=O)O)cc4)cc3C)cc2C(=O)N(C)c2cccnc21 [Entry 3030]
Reply: > 50 nM

Task item: Same thing, different molecule: CCN1c2ncc(CCOc3ccc(-c4cc(CC(=O)O)ccc4OC)cc3C)cc2C(=O)N(C)c2cccnc21 [Entry 1037]
Reply: 10 to 50 nM

Task item: Same thing, different molecule: CCN1c2ncc(CCOc3ccc(-c4cc(CC(=O)O)ccc4C)cc3C)cc2C(=O)N(C)c2cccnc21 [Entry 1036]
Reply: 10 to 50 nM

Return reported EC50 values for all items listed beneath this line.
1. CCN1c2ncc(CCOc3ccc(-c4ccc(Cl)c(C(=O)O)c4)cc3C)cc2C(=O)N(C)c2cccnc21 [Entry 1032]
2. CCN1c2ncc(CCOc3ccc(-c4ccc(CC(=O)O)cc4)cc3CO)cc2C(=O)N(C)c2cccnc21 [Entry 1104]
3. CCN1c2ncc(CCOc3ccc(-c4ccc(C(C)C(=O)O)cc4)cc3C)cc2C(=O)N(C)c2cccnc21 (stereo not drawn) [Entry 1010]
4. CCN1c2ncc(CCOc3ccc(-c4cccc(C(=O)O)c4)cc3)cc2C(=O)N(C)c2cccnc21 [Entry 1012]
5. CCN1c2ncc(CCOc3ccc(-c4ccc(Cl)c(CC(=O)O)c4)cc3C)cc2C(=O)N(C)c2cccnc21 [Entry 1038]
6. CCN1c2ncc(CCOc3ccc(-c4cc[n+](C)cc4)cc3C)cc2C(=O)N(C)c2cccnc21 [Entry 1089]

Reply:
1: 10 to 50 nM; 2: 10 to 50 nM; 3: 10 to 50 nM; 4: 10 to 50 nM; 5: 10 to 50 nM; 6: < 10 nM
